Test system: RERF-LC-KJ
Assay: relative viability (nuclei count vs DMSO), 5 days (fraction); higher = more cells survive
Conditions: first compound 0.8 µM
Recorded relative viability by entry
Just the number, please.

Problem: Quick check: relative viability of Cc1cnc(-c2cnc(NCCNc3ccc(C#N)cn3)nc2-c2ccc(Cl)cc2Cl)[nH]1 + CCNC(=O)c1noc(-c2cc(C(C)C)c(O)cc2O)c1-c1ccc(CN2CCOCC2)cc1 [Luminespib] (partner 0.01 µM) ?
Result: 1.27

Problem: Query Cc1cnc(-c2cnc(NCCNc3ccc(C#N)cn3)nc2-c2ccc(Cl)cc2Cl)[nH]1 + CS(=O)(=O)N1CCN(Cc2cc3nc(-c4cccc5[nH]ncc45)nc(N4CCOCC4)c3s2)CC1 [Pictilisib] (partner 1 µM) next
Result: 0.497

Problem: Query O=c1[nH]c2ccccc2n1C1CCN(CCCC(c2ccc(F)cc2)c2ccc(F)cc2)CC1 [Pimozide] + CC1(C)CCC(c2ccc(Cl)cc2)=C(CN2CCN(c3ccc(C(=O)NS(=O)(=O)c4ccc(N[C@H](CCN5CCOCC5)CSc5ccccc5)c(S(=O)(=O)C(F)(F)F)c4)cc3)CC2)C1 [Navitoclax] (partner 0.5 µM) next
Result: 0.885

Problem: Query Cc1cnc(-c2cnc(NCCNc3ccc(C#N)cn3)nc2-c2ccc(Cl)cc2Cl)[nH]1 + NC(=O)Nc1cc(-c2cccc(F)c2)sc1C(=O)N[C@H]1CCCNC1 [AZD7762] (partner 0.2 µM) next
Result: 0.881
